# System: P. acnes
# experiment_description: Agar dilution method: growth of P. acnes and MIC, compounds tested singly
# Format: cell-based, Propionibacterium acnes
# Set-up: key: +++: confluent growth (comparable to control); ++: less confluent growth; +: marked reduction in growth to multiple tiny, single colonies; −: no growth present
# run_parameters: compound at 0.6 mg/mL in agar
# Procedure: Several compounds including fatty acids such as DGLA, 15-OHEPA, and 15-HETrE were tested to determine their capacity to inhibit the growth of P. acnes. In an exemplary method, an agar dilution method was used to determine the minimum inhibitory concentration (MIC) of each tested compound. […] The growth of P. acnes in the presence of nicotinamide, benzoyl peroxide, adapalene, metronidazole, DGLA, 15-OHEPA, and 15-HETrE was determined with varying concentrations of the compound (see, Table 2). […]
parameter: Growth Index (+++, ++, +, −) Avg

Cc1ncc([N+](=O)[O-])n1CCO = +++
O=C(OOC(=O)c1ccccc1)c1ccccc1 [Benzoyl Peroxide, benzoyl peroxide] = ++
COc1ccc(-c2ccc3cc(C(=O)O)ccc3c2)cc1C12CC3CC(CC(C3)C1)C2 = ++
CCCCC/C=C\C/C=C\C/C=C\CCCCCCC(=O)O [DGLA, cis-8,11,14-eicosatrienoic acid] = +

* * *

# Test system: P. acnes
# experiment_description: Agar dilution method: growth of P. acnes and MIC, compounds tested singly
# Assay type: cell-based, Propionibacterium acnes
# Set-up: key: +++: confluent growth (comparable to control); ++: less confluent growth; +: marked reduction in growth to multiple tiny, single colonies; −: no growth present
# run_parameters: compound at 0.6 mg/mL in agar
parameter: Growth Index (+++, ++, +, −) Plate 1

Cc1ncc([N+](=O)[O-])n1CCO [Metronidazole] = +++
CCCCC/C=C\C/C=C\C/C=C\CCCCCCC(=O)O [DGLA, cis-8,11,14-eicosatrienoic acid] = ++
O=C(OOC(=O)c1ccccc1)c1ccccc1 [Benzoyl Peroxide, benzoyl peroxide] = ++
COc1ccc(-c2ccc3cc(C(=O)O)ccc3c2)cc1C12CC3CC(CC(C3)C1)C2 [Adapalene] = ++

* * *

# System: P. acnes
# experiment_description: Agar dilution method: growth of P. acnes and MIC, compounds tested singly
# Format: cell-based, Propionibacterium acnes
# Set-up: key: +++: confluent growth (comparable to control); ++: less confluent growth; +: marked reduction in growth to multiple tiny, single colonies; −: no growth present
# run_parameters: compound at 0.4 mg/mL in agar
# Description: Several compounds including fatty acids such as DGLA, 15-OHEPA, and 15-HETrE were tested to determine their capacity to inhibit the growth of P. acnes. In an exemplary method, an agar dilution method was used to determine the minimum inhibitory concentration (MIC) of each tested compound. […] The growth of P. acnes in the presence of nicotinamide, benzoyl peroxide, adapalene, metronidazole, DGLA, 15-OHEPA, and 15-HETrE was determined with varying concentrations of the compound (see, Table 2). […]
parameter: Growth Index (+++, ++, +, −) Avg

CCCCC/C=C\C/C=C\C/C=C\CCCCCCC(=O)O [DGLA, cis-8,11,14-eicosatrienoic acid] = +++
Cc1ncc([N+](=O)[O-])n1CCO = +++
COc1ccc(-c2ccc3cc(C(=O)O)ccc3c2)cc1C12CC3CC(CC(C3)C1)C2 = +++
O=C(OOC(=O)c1ccccc1)c1ccccc1 [Benzoyl Peroxide, benzoyl peroxide] = +++
